Reported drug-induced phospholipidosis is given for each of the following compounds.
- Tested on: A549-ACE2
- Assay Method Text: drug-induced phospholipidosis relative to tamoxifen; higher = more phospholipidosis
- Conditions Used: 0.3 µM; 72 h
Attribute Measured: drug-induced phospholipidosis (%)

- Clc1ccccc1CNC[C@H]1CC[C@H](CNCc2ccccc2Cl)CC1 [AY-9944]: 17.5
- COc1cc2c(NC3CCN(C4CCCCC4)CC3)nc(N3CCCN(C(C)C)CC3)nc2cc1OCCCN1CCCCC1 [UNC0646]: 0.206
- COc1ccc(/C=C/C(=O)/C=C(O)/C=C/c2ccc(OC)c(OC)c2)cc1OC [ASC-J9]: 4.19
- FC(F)(F)c1cc(CO[C@H]2CCCN[C@H]2c2ccccc2)cc(C(F)(F)F)c1: 5.63
- OC(c1cc(C(F)(F)F)nc2c(C(F)(F)F)cccc12)C1CCCCN1 (stereo unspecified) [mefloquine]: 5.04
- NC(=O)c1cnc(N[C@@H]2CCCC[C@@H]2N)nc1Nc1cccc(-n2nccn2)c1: 3.49

====

- Tested on: Vero E6
- Assay Method Text: drug sensitivity score (DSS) for viability; higher = more toxic; extreme values may be limits of the assay
- Conditions Used: 72 h
Attribute Measured: drug sensitivity score

- COC(=O)C1=C(C)NC(C)=C(C(=O)OCCN2CCN(C(c3ccccc3)c3ccccc3)CC2)C1c1cccc([N+](=O)[O-])c1 (stereo unspecified): 0
- Cc1[nH]c2ccccc2c1CCNC(=O)c1cccs1: 0
- C#CCN(C)Cc1ccccc1: 0
- COc1cc(C(C)=O)ccc1O: 0
- Nc1ncnc(Nc2ccc(Cl)cc2)n1: 0
- CC(=O)N(CC(O)CO)c1c(I)c(C(=O)NCCO)c(I)c(C(=O)NCC(O)CO)c1I (stereo unspecified): 0
- Nc1ccc(C(=O)NCC(=O)O)cc1: 0
- O=C(O)[C@H](O)c1ccccc1: 0
- Clc1ccccc1CNC[C@H]1CC[C@H](CNCc2ccccc2Cl)CC1: 0
- Cc1cccc(C)c1NC(=O)/N=C1\CCCN1C: 0
- O=C(Nc1ccncc1)C(=O)c1cn(Cc2ccc(Cl)cc2)c2ccccc12: 2
- Cc1cnc(CNC(=O)c2c(=O)c3ccc(N4CCCN(C)CC4)nc3n3c2sc2ccccc23)cn1: 4.7
- FC(F)(F)C(F)(F)C(F)(F)C(F)(F)C(F)(F)C(F)(F)C(F)(F)C(F)(F)Br: 0
- COc1c(O)cc2c(c1O)[C@@H]1O[C@H](CO)[C@@H](O)[C@H](O)[C@H]1OC2=O: 0
- O=C(O)CCc1cc(C(=O)c2ccc(OC3CCCC3)cc2O)ccc1OCc1ccc2c(O)noc2c1: 0
- Nc1ccc(/N=N/c2ccccc2)c(N)n1: 0.3
- COc1ccc(CCNCc2ccc(OCc3ccc(Cl)nc3)c(OC)c2)cc1OC: 0
- CCN(CC)CCN(Cc1ccc(-c2ccc(C(F)(F)F)cc2)cc1)C(=O)Cn1c(SCc2ccc(F)cc2)nc(=O)c2c1CCC2: 4.2
- Cc1cnc(-c2cnc(NCCNc3ccc(C#N)cn3)nc2-c2ccc(Cl)cc2Cl)[nH]1: 1.2
- O=C(O)C(O)C(O)C(=O)O (stereo unspecified): 0
- N#Cc1c(Oc2ccc(F)c(NC(=O)Cc3cccc(C(F)(F)F)c3)c2)ccc2nc(NC(=O)C3CC3)sc12: 6.8
- CS(=O)(=O)N(Cc1ccco1)C[C@@H](O)Cn1c2ccccc2c2ccccc21: 0
- CC(C)COc1ccc(CNC(=O)N(Cc2ccc(F)cc2)C2CCN(C)CC2)cc1: 0
- C[N+](C)(C)[C@@H](Cc1c[nH]c(=S)[nH]1)C(=O)O: 0
- COC(=O)C1=C(C)NC(C)=C(C(=O)OCC(C)C)C1c1ccccc1[N+](=O)[O-] (stereo unspecified): 2.8
- CCc1cc2c(cc1N1CCC(N3CCOCC3)CC1)C(C)(C)c1[nH]c3cc(C#N)ccc3c1C2=O: 0
- COc1cc2c(cc1OC)C1CC(=O)C(CC(C)C)CN1CC2 (stereo unspecified): 0
- CCCOC(=O)c1ccccc1 [propyl-benzoate]: 0
- CCN1CCN(Cc2ccc(Nc3ncc(F)c(-c4cc(F)c5nc(C)n(C(C)C)c5c4)n3)nc2)CC1: 6.1
- CCCc1c(OCCCCc2nnn[nH]2)ccc(C(C)=O)c1O: 0
- O=C(CNC(=O)c1cccc(C(F)(F)F)c1)N[C@@H]1CCN(Cc2ccc(Cl)cc2)C1: 0
- O=c1[nH]c2ccccc2n1C1CCN(CCOc2ccccc2)CC1 [oxiperomide]: 0.7
- CCN1C(C)(C)CC(Oc2ccc(C(=O)Nc3ccc(NC(=O)Nc4cc(C(C)(C)C)on4)cc3)nc2)CC1(C)C: 0
- CCc1cnc(N2CCC(c3nc(COc4ccc(-n5cnnn5)cc4)cs3)CC2)nc1: 0.9
- O=C(NNC(=O)c1ccc(CNS(=O)(=O)c2ccc(F)c(Cl)c2)cc1)c1ccccc1: 0
- C[S+]([O-])CCCCN=C=S (stereo unspecified): 0
